Parameter: log10 Ki. Scope: all listed entries.
molecular target: Adenosine receptor A2a (Homo sapiens, UniProt P29274); experiment: Displacement of [3H]MSX-2 from human recombinant adenosine A2A receptor expressed in CHO cells by liquid scintillation counting analysis
Sequence (P29274 whole entry): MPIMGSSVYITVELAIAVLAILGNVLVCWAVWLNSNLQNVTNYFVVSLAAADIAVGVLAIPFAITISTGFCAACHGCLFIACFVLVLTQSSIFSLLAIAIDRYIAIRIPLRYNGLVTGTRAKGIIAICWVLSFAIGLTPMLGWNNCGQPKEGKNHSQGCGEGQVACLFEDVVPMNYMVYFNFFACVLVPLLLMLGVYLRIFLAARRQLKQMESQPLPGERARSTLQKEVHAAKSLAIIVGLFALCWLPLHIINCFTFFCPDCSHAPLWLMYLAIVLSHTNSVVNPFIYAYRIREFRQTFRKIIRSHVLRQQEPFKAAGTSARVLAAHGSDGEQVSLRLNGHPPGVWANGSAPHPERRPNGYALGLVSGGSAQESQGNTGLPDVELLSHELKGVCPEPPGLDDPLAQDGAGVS
Reported Endpoint: log10 Ki (log10 of the value in nM)

[[record]]
smiles = "Nc1nc(-c2ccc(OCCCN3CCCCC3)cc2)c2c(n1)-c1ccc(OCCCN3CCCCC3)cc1C2"
measured_number = 2.97

[[record]]
smiles = "Nc1nc(-c2ccc(OCCCN3CCCCC3)cc2)c2c(n1)-c1ccccc1C2"
measured_number = 2.86

[[record]]
smiles = "Nc1nc(-c2ccccc2)c2c(n1)-c1cc(OCCCN3CCCC3)ccc1C2=O"
measured_number = 0.80

[[record]]
smiles = "Nc1nc(-c2ccccc2)c2c(n1)-c1cc(OCCCN3CCCCC3)ccc1C2=O"
measured_number = 0.60

[[record]]
smiles = "Nc1nc(-c2ccccc2)c2c(n1)-c1cc(OCCCN3CCCCC3)ccc1C2"
measured_number = 0.69

[[record]]
smiles = "Nc1nc(-c2ccc(OCCCN3CCCCC3)cc2)c2c(n1)-c1ccccc1C2=O"
measured_number = 1.55


----------
Target: Adenosine receptor A1 (Homo sapiens, UniProt P30542)
Sequence (P30542 whole entry): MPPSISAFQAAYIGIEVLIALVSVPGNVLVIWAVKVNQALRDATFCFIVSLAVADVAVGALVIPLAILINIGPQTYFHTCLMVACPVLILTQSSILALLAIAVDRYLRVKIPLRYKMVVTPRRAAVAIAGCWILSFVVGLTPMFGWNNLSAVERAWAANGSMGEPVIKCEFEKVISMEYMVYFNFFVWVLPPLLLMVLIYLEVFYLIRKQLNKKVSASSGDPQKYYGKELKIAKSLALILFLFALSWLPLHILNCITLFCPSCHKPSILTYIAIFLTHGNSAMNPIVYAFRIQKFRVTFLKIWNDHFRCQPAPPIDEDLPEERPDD
Assay: Displacement of [3H]CCPA from human recombinant adenosine A1 receptor expressed in CHO cells by liquid scintillation counting analysis
pKi: −log10 of the molar value.
Reported Endpoint: pKi

[[record]]
smiles = "Nc1nc(-c2ccc(OCCCN3CCCCC3)cc2)c2c(n1)-c1ccc(OCCCN3CCCCC3)cc1C2=O"
limit_sign = "≤"
measured_number = 6.00

[[record]]
smiles = "Nc1nc(-c2ccccc2)c2c(n1)-c1ccc(OCCCN3CCCCC3)cc1C2"
limit_sign = "<"
measured_number = 6.00

[[record]]
smiles = "Nc1nc(-c2ccccc2)c2c(n1)-c1ccc(OCCCN3CCCCC3)cc1C2=O"
limit_sign = "="
measured_number = 6.44

[[record]]
smiles = "Nc1nc(-c2ccccc2)c2c(n1)-c1cc(OCCCN3CCCCC3)ccc1C2"
limit_sign = "="
measured_number = 7.73

[[record]]
smiles = "Nc1nc(-c2ccccc2)c2c(n1)-c1ccc(OCCCN3CCCC3)cc1C2=O"
limit_sign = "="
measured_number = 6.89

[[record]]
smiles = "Nc1nc(-c2ccccc2)c2c(n1)-c1cc(OCCCN3CCCC3)ccc1C2"
limit_sign = "="
measured_number = 7.94

[[record]]
smiles = "Nc1nc(-c2ccc(OCCCN3CCCCC3)cc2)c2c(n1)-c1ccc(OCCCN3CCCCC3)cc1C2"
limit_sign = "<"
measured_number = 6.00

[[record]]
smiles = "O=C(c1ccc(OCCCc2cnc[nH]2)cc1)C1CC1"
limit_sign = "<"
measured_number = 6.00

[[record]]
smiles = "Nc1nc(-c2ccccc2)c2c(n1)-c1cc(OCCCN3CCCC3)ccc1C2=O"
limit_sign = "="
measured_number = 7.90


----------
target: Adenosine receptor A3 (Homo sapiens, UniProt P0DMS8); assay: Displacement of [3H]PSB-11 from human recombinant adenosine A3 receptor expressed in CHO cells by liquid scintillation counting analysis; type: cell-based
Sequence (P0DMS8 whole entry): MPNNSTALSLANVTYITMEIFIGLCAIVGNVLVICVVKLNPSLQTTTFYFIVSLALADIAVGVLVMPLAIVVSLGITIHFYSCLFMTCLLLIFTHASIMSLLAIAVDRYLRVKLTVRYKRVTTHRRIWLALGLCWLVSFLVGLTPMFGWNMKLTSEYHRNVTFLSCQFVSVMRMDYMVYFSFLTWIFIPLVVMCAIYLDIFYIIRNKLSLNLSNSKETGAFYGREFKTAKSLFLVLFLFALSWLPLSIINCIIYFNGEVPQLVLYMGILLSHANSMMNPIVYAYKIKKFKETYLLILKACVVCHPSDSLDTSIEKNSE
Parameter: Ki. Scope: all listed entries.
Reported Endpoint: Ki

[[record]]
compound = "Nc1nc(-c2ccc(OCCCN3CCCCC3)cc2)c2c(n1)-c1ccc(OCCCN3CCCCC3)cc1C2"
result = "> 1000 nM"

[[record]]
compound = "Nc1nc(-c2ccccc2)c2c(n1)-c1cc(OCCN3CCOCC3)ccc1C2=O"
result = "430 nM"

[[record]]
compound = "Nc1nc(-c2ccc(OCCCN3CCCCC3)cc2)c2c(n1)-c1ccccc1C2"
result = "> 1000 nM"

[[record]]
compound = "Nc1nc(-c2ccccc2)c2c(n1)-c1ccc(OCCCN3CCCCC3)cc1C2=O"
result = "> 1000 nM"

[[record]]
compound = "Nc1nc(-c2ccccc2)c2c(n1)-c1ccc(OCCCN3CCCC3)cc1C2"
result = "> 1000 nM"

[[record]]
compound = "O=C(c1ccc(OCCCN2CCCCC2)cc1)C1CC1"
result = "> 1000 nM"

[[record]]
compound = "Nc1nc(-c2ccccc2)c2c(n1)-c1cc(OCCCN3CCCCC3)ccc1C2"
result = "231 nM"

[[record]]
compound = "Nc1nc(-c2ccc(OCCCN3CCCCC3)cc2)c2c(n1)-c1ccccc1C2=O"
result = "> 1000 nM"

[[record]]
compound = "Nc1nc(-c2ccc(OCCCN3CCCCC3)cc2)c2c(n1)-c1ccc(OCCCN3CCCCC3)cc1C2=O"
result = "> 1000 nM"

[[record]]
compound = "Nc1nc(-c2ccccc2)c2c(n1)-c1ccc(OCCCN3CCCCC3)cc1C2"
result = "> 1000 nM"

[[record]]
compound = "Nc1nc(-c2ccccc2)c2c(n1)-c1cc(OCCCN3CCCCC3)ccc1C2=O"
result = "150 nM"

[[record]]
compound = "COCCOc1ccc(N2CCN(CCn3ncc4c3nc(N)n3nc(-c5ccco5)nc43)CC2)cc1 [PRELADENANT]"
result = "> 1000 nM"

[[record]]
compound = "Nc1nc(-c2ccccc2)c2c(n1)-c1cc(OCCCN3CCCC3)ccc1C2"
result = "150 nM"

[[record]]
compound = "O=C(c1ccc(OCCCc2cnc[nH]2)cc1)C1CC1 [CIPROXIFAN]"
result = "> 1000 nM"

[[record]]
compound = "Nc1nc(-c2ccccc2)c2c(n1)-c1cc(OCCCN3CCCC3)ccc1C2=O"
result = "199 nM"

[[record]]
compound = "Nc1nc(-c2ccccc2)c2c(n1)-c1ccc(OCCCN3CCCC3)cc1C2=O"
result = "846 nM"


----------
target: Adenosine receptor A2b (Homo sapiens, UniProt P29275); assay: Displacement of [3H]PSB-603 from human recombinant adenosine A2B receptor expressed in CHO cells by liquid scintillation counting analysis
Sequence (P29275 whole entry): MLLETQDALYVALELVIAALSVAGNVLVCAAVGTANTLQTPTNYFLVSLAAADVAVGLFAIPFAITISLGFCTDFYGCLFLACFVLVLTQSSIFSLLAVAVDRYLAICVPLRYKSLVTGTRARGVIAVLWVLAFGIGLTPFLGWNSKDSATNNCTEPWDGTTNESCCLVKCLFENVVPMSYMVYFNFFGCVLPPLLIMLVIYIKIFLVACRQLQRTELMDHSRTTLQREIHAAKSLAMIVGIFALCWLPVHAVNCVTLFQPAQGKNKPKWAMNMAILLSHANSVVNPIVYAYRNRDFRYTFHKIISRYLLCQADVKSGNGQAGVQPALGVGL
pKi: −log10 of the molar value.
Parameter: pKi. Scope: all listed entries.
Reported Endpoint: pKi

[[record]]
smiles = "Nc1nc(-c2ccc(OCCCN3CCCCC3)cc2)c2c(n1)-c1ccc(OCCCN3CCCCC3)cc1C2"
experimental_system = "Adenosine receptor A2b (Homo sapiens, UniProt P29275)"
reported_endpoint = "pKi"
limit_sign = "<"
measured_number = 6.00

[[record]]
smiles = "O=C(c1ccc(OCCCN2CCCCC2)cc1)C1CC1"
experimental_system = "Adenosine receptor A2b (Homo sapiens, UniProt P29275)"
reported_endpoint = "pKi"
limit_sign = "<"
measured_number = 6.00

[[record]]
smiles = "Nc1nc(-c2ccc(OCCCN3CCCCC3)cc2)c2c(n1)-c1ccccc1C2"
experimental_system = "Adenosine receptor A2b (Homo sapiens, UniProt P29275)"
reported_endpoint = "pKi"
limit_sign = "<"
measured_number = 6.00

[[record]]
smiles = "Nc1nc(-c2ccccc2)c2c(n1)-c1cc(OCCCN3CCCCC3)ccc1C2"
experimental_system = "Adenosine receptor A2b (Homo sapiens, UniProt P29275)"
reported_endpoint = "pKi"
limit_sign = "="
measured_number = 7.24

[[record]]
smiles = "Nc1nc(-c2ccccc2)c2c(n1)-c1ccc(OCCCN3CCCC3)cc1C2=O"
experimental_system = "Adenosine receptor A2b (Homo sapiens, UniProt P29275)"
reported_endpoint = "pKi"
limit_sign = "="
measured_number = 6.74

[[record]]
smiles = "Nc1nc(-c2ccc(OCCCN3CCCCC3)cc2)c2c(n1)-c1ccc(OCCCN3CCCCC3)cc1C2=O"
experimental_system = "Adenosine receptor A2b (Homo sapiens, UniProt P29275)"
reported_endpoint = "pKi"
limit_sign = "<"
measured_number = 6.00

[[record]]
smiles = "O=C(c1ccc(OCCCc2cnc[nH]2)cc1)C1CC1"
experimental_system = "Adenosine receptor A2b (Homo sapiens, UniProt P29275)"
reported_endpoint = "pKi"
limit_sign = "<"
measured_number = 6.00

[[record]]
smiles = "Nc1nc(-c2ccccc2)c2c(n1)-c1cc(OCCCN3CCCC3)ccc1C2"
experimental_system = "Adenosine receptor A2b (Homo sapiens, UniProt P29275)"
reported_endpoint = "pKi"
limit_sign = "="
measured_number = 7.43

[[record]]
smiles = "Nc1nc(-c2ccccc2)c2c(n1)-c1ccc(OCCCN3CCCCC3)cc1C2=O"
experimental_system = "Adenosine receptor A2b (Homo sapiens, UniProt P29275)"
reported_endpoint = "pKi"
limit_sign = "="
measured_number = 6.94

[[record]]
smiles = "COCCOc1ccc(N2CCN(CCn3ncc4c3nc(N)n3nc(-c5ccco5)nc43)CC2)cc1"
experimental_system = "Adenosine receptor A2b (Homo sapiens, UniProt P29275)"
reported_endpoint = "pKi"
limit_sign = "<"
measured_number = 6.00

[[record]]
smiles = "Nc1nc(-c2ccccc2)c2c(n1)-c1cc(OCCCN3CCCC3)ccc1C2=O"
experimental_system = "Adenosine receptor A2b (Homo sapiens, UniProt P29275)"
reported_endpoint = "pKi"
limit_sign = "="
measured_number = 7.32

[[record]]
smiles = "Nc1nc(-c2ccccc2)c2c(n1)-c1cc(OCCCN3CCCCC3)ccc1C2=O"
experimental_system = "Adenosine receptor A2b (Homo sapiens, UniProt P29275)"
reported_endpoint = "pKi"
limit_sign = "="
measured_number = 7.36

[[record]]
smiles = "Nc1nc(-c2ccccc2)c2c(n1)-c1ccc(OCCCN3CCCCC3)cc1C2"
experimental_system = "Adenosine receptor A2b (Homo sapiens, UniProt P29275)"
reported_endpoint = "pKi"
limit_sign = "<"
measured_number = 6.00

[[record]]
smiles = "Nc1nc(-c2ccccc2)c2c(n1)-c1ccc(OCCCN3CCCC3)cc1C2"
experimental_system = "Adenosine receptor A2b (Homo sapiens, UniProt P29275)"
reported_endpoint = "pKi"
limit_sign = "<"
measured_number = 6.00

[[record]]
smiles = "Nc1nc(-c2ccc(OCCCN3CCCCC3)cc2)c2c(n1)-c1ccccc1C2=O"
experimental_system = "Adenosine receptor A2b (Homo sapiens, UniProt P29275)"
reported_endpoint = "pKi"
limit_sign = "="
measured_number = 6.48

